For each record, write down the corresponding IC50.
# TARGET SYSTEM: recombinant human KLK5 (Homo sapiens, UniProt Q9Y337)
# Construct: purchased Novoprotein or R&D Systems C415 or 1108-SE
# Sequence (Q9Y337 23-293): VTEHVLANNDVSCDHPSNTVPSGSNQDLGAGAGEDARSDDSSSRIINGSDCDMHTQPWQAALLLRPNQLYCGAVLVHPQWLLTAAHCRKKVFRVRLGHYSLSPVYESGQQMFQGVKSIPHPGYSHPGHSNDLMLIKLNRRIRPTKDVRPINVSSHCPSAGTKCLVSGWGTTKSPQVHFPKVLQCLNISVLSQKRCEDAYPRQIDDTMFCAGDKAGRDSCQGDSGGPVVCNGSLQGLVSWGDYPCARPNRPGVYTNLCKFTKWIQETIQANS
# EXPERIMENTAL DETAILS: Kallikrein (KLK) 5 enzymatic assay (Boc-VPR-AMC fluorogenic substrate)
# Format: biochemical
# ASSAY SETUP: recombinant human KLK5 0.1 μg/well, Boc-VPR-AMC 100 μM, pH 7.5, room temperature, 1% DMSO; tested a minimum of three times

// solved cases for IC50 follow
- MOLECULE: "COc1cc(-c2ccc3ccnc(N)c3c2)cc2c(COc3ccccc3CC(=O)O)coc12 [Compound 229f]"
  IC50: "1000 to 10000 nM"
- MOLECULE: "Nc1nccc2c(-c3cc(NCC4CC4)c4c(c3)c(COc3ccccc3CC(=O)O)nn4C3CCCCO3)cccc12 (stereo not drawn) [Compound 107d]"
  IC50: "< 1000 nM"
- MOLECULE: "Cc1cccc(OC2CC3(CCN(C(=O)OC(C)C)CC3)c3ccc(-c4cccc5c(N)nccc45)cc32)c1CC(=O)O (stereo not drawn) [Compound 384b]"
  IC50: "< 1000 nM"
- MOLECULE: "Nc1nccc2c(-c3ccc4nn([C@H]5CCN(CCO)C5)c(COc5ccccc5CC(=O)O)c4c3)cccc12 [Compound 115b]"
  IC50: "1000 to 10000 nM"
- MOLECULE: "CCC(=O)N1CC(n2nc3ccc(-c4cccc5c(N)nccc45)cc3c2COc2ccccc2CC(=O)O)C1 [Compound 129b]"
  IC50: "1000 to 10000 nM"
- MOLECULE: "CC(C)(C)OC(=O)N1CC(n2nc(COc3ccccc3CC(=O)O)c3cc(-c4cccc5c(N)nccc45)ccc32)C1 [Compound 142b]"
  IC50: "< 1000 nM"

Return reported IC50 values for all items listed beneath this line.
1. Cc1cc(-c2ccc3ccnc(N)c3c2)cc2c1CCC2Oc1ccccc1CC(=O)O (stereo not drawn) [Compound 205e]
2. CC(C)n1nc(COc2ccccc2CC(=O)O)c2cc(-c3cccc(C(=N)N)c3F)ccc21 [Compound 64d]
3. COCCN1CC(Cn2nc(COc3ccccc3CC(=O)O)c3cc(-c4ccc5ccnc(N)c5c4)ccc32)C1 [Compound 306c]

OUTPUT:
1. 1000 to 10000 nM
2. < 1000 nM
3. < 1000 nM
